# Test system: Zymoseptoria tritici (SEPTTR-184)
# PROTOCOL SUMMARY: Cyp51 dsRNA tile (fragment) foliar application bioassay (Example 6)
# Type: in vivo
# CONDITION SET: 3 days curative; rate 200 ppm; average of 2 trials

- MOLECULE: "MgCyp51-T3: dsRNA tile of Zymoseptoria tritici Cyp51, 230 bp, location 450-679 (nucleic acid, listed as Zymoseptoria tritici) CGTCAAGTACGGCCTCACAACCTCTGCCCTCCAGTCCTACGTGACCTTGATCGCCGCCGAGACCCGCCAGTTCTTCGACCGCAACAACCCTCATAAGAAGTTCGCATCGACCAGCGGCACGATCGATCTCCCACCAGCCCTCGCCGAACTTACGATCTATACTGCCAGCCGATCATTGCAAGGAAAGGAAGTCCGCGAGGGCTTCGACTCGTCTTTCGCGGACCTCTACC"
  Disease Control (%) SEPTTR-184 3DC: "76%"

Value source: patent US20180320179A1
